Numbers sourced from paper PMC12040169.

# ASSAY TEXT: in vitro
# ASSAY CONDITIONS: human, hela cells, % viability
VALUE KIND: viability at 28.5 h, 10 µM (%)
Write down the numeric answer in % and omit the unit.

Some compounds with known viability at 28.5 h, 10 µM results, for comparison:
Cc1cc(C(=O)Cn2nc(C(=O)O)c3ccccc3c2=O)c(C)n1Cc1ccccc1Cl	111
COc1ccccc1NC(=O)CN(c1ccc(C)cc1)S(=O)(=O)c1ccc(F)cc1	91.2
Cc1nc2ccc(C(=O)N3CCC(O)(c4ccccc4C)CC3)cc2[nH]1	95.8

Please give the measured viability at 28.5 h, 10 µM for this compound: Cc1ccc(NC(=O)N(Cc2ccc3ccccc3c2)CC2CCNCC2)cc1[N+](=O)[O-] 100

Another compound to check: C/C(=N\NC(=O)C1CC1)c1ccc(C)cc1 90.7

###

viability at 28.5 h, 10 µM: recorded values
# ASSAY TEXT: in vitro
# ASSAY CONDITIONS: human, hela cells, % viability
Reply numerically in %, unit not repeated.

Cn1c(=O)c2c(nc(CN3CCN(C(=O)c4ccco4)CC3)n2CCc2ccccc2)n(C)c1=O [CBK269278]	80.6
CN1CCC(N(C)C(=O)NCc2ccc(C#N)cc2)C1 (stereo not drawn) [CBK156005]	89.3
CC(Cn1cncn1)NS(=O)(=O)c1cccc(C(=O)N2CCCCC2)c1 (stereo not drawn) [CBK306594]	86.7
O=C(Cn1cccc2cc(C3CCCNC3)nc1-2)N1CCCCCC1 (stereo not drawn) [CBK285088]	93.2

Which viability at 28.5 h, 10 µM value is on record for O=C(NCCCn1ccnc1)c1cc2c(ccc3ccccc32)oc1=O [CBK263543] ? 86

###

viability at 28.5 h, 10 µM by entry:
# ASSAY TEXT: in vitro
# ASSAY CONDITIONS: human, hela cells, % viability
Write the number in % without appending the unit.

Use these answered entries as a reference point.
Cn1cncc1CN1C2CCC1CC(O)(c1ccccc1F)C2 (stereo not shown)	107
CCOC(=O)c1ccc(N2CC(C(=O)O)CC2=O)cc1 (stereo not shown)	115
N#Cc1c(NC(=O)c2cc(S(=O)(=O)N3CCOCC3)cs2)sc2c1CCCC2	102
CC(=O)Oc1cccc(C(=O)O)c1C	87.7
Cc1cccc(C)c1NC(=O)C(C#N)C(=O)c1nn(-c2ccccc2)c2c1CSc1ccccc1-2 (stereo not shown)	81.8
CS(=O)(=O)N1CC2(CCN(Cc3cccnc3)CC2)c2ccccc21	98.1
CN1CCCN(c2nc(-c3cccs3)cn3ccnc23)CC1	89.5
CN(c1ccccc1)S(=O)(=O)c1cccc(NC(=O)c2ccc(=O)[nH]n2)c1	96.3

Given the entry CCN(CC)C(=O)N1CCN(CCC#N)CC1 , report its measured viability at 28.5 h, 10 µM. 94.9

Same question for Cc1nc(C(F)(F)F)ccc1C(=O)N(C)CCN1CCCCC1 please. 87.3

###

Listing of recorded viability at 28.5 h, 10 µM by entry.
# ASSAY TEXT: in vitro
# ASSAY CONDITIONS: human, hela cells, % viability
In your response, put the unit directly after the numeric value.

Reference set, count: 4
O=c1[nH]c(=O)c2cc(S(=O)(=O)NC3CCN(Cc4ccccc4)C3)ccc2[nH]1 (stereo not shown)	109%
Clc1ccccc1-c1nnn(Cc2ccc(-c3nnn[nH]3)cc2)n1	89.3%
Cc1ccc(C2=CCN(CC(=O)NC3CCCC3)CC2)o1	92%
Cc1ccc(S(=O)(=O)Nc2ccnc(-c3ccc(CN4C(=O)CSC4=O)cc3)n2)cc1	96.1%

Data request, read-out viability at 28.5 h, 10 µM, for CC(=O)Nc1cccc(NC(=O)CN(CCO)C2CCCCC2)c1 85.7%

// query: CN(CCN(C)C(=O)c1cc2sccc2[nH]1)CC(F)F 103%

Let us now turn to Cc1c(C(C)NCC2CCCC2O)cnn1-c1ccc(C#N)cc1 (stereo not shown) 94.5%

Param item: O=C(O)CSCC(=O)c1ccccc1 93.1%

Next compound: CC(=O)Nc1ccc(NC(=O)CCC(=O)O)cc1C 95.3%

Item: CCOC(=O)C(C)n1nc(C)n2c(cc3ccsc32)c1=O (stereo not shown) 96.2%
